Origin of measurements: PubChem BioAssay

Assay: RPMI8226 myeloma cell viability, profiling panel, resazurin fluorescence, basal, 24 h, PK04 Diversity Set (AID 1180);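 further: RPMI8826 multiple myeloma cell line at 5000 cells per well; test concentration not given here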
Settings: higher = more signal
Classification scheme (z-score): band A: < -0.8; band B: ≥ -0.8 and < -0.04; band C: ≥ -0.04

Examples from the recorded data:
compound	class label
COC(=O)c1ccc(C23CC2(C(NP(=O)(c2ccccc2)c2ccccc2)c2ccccc2)C3)cc1 (centres undefined)	band B
O=C(NCc1ccccc1)[C@]1(CCS(=O)(=O)c2ccccc2)N=C(c2ccc(OCCCO)cc2)O[C@@H]1c1ccccc1	band C
NC(=O)NCC#Cc1ccc2c(c1)[C@]1(C(=O)N2)[C@H](C(=O)N2CCCCCCC2)[C@H]2C(=O)O[C@H](c3ccccc3)[C@H](c3ccccc3)N2[C@@H]1c1ccc(OCCO)cc1	band A
C=C(CCCC)C(=O)CC[C@H](OC(=O)c1cccnc1)c1cccc(OCCO)c1	band A
CC(=CC1CCCCC1)[C@@H](NC(=O)c1ccc(C(F)(F)F)cc1)c1ccc(-c2ccccc2)cc1	band B

Bin this entry: Cc1ccc(S[C@]2(C(=O)NCc3ccccc3)CC(=O)N(Cc3ccccc3)[C@@H]2c2ccc(CO)cc2)cc1
band B

Check COCCCNC(=O)[C@@]1(c2ccc([N+](=O)[O-])cc2)CC(=O)N(CC23CC4CC(CC(C4)C2)C3)[C@@H]1c1ccc(CO)cc1 too.
band A

Another: CC(C)C(O)C1C=CC2C(=O)N(c3ccccc3)C(=O)C2N1Nc1ccc(C#N)cc1 (centres undefined)
band B

Check C=CCNC(=O)[C@@H]1[C@H]2C(=O)O[C@H](c3ccccc3)[C@H](c3ccccc3)N2[C@H](c2ccc(OCCO)cc2)[C@@]12C(=O)Nc1ccccc12 too.
band B

And for NCCCCCCNC(=O)[C@H]1C[C@H]2C(=O)NCC(=O)N2[C@H]1c1cccc(OCCO)c1 ?
band C

Likewise for [N-]=[N+]=NCc1ccccc1[C@@H]1OC(c2ccc(OCCCO)cc2)=N[C@]1(Cc1ccccc1N=[N+]=[N-])C(=O)NCc1ccccc1 ?
band A

Follow-up item: O=C(OCCF)C1=CCC(c2cccc(Cl)c2)O1 (centres undefined)
band C

Lookup COc1ccc([Si](C)(C)[C@@H]2[C@@H](CC(=O)N3CCC[C@H]3CO)O[C@]3(C(=O)N(C)c4c(Br)cc(C)cc43)[C@H]2C)cc1
band B

Now the same for COC(=O)[C@@]1(Cc2ccc(OC)cc2)[C@H]2c3cc(C(=O)N4CCCC4)n(CCc4c[nH]c5cc(F)ccc45)c3C[C@H]2CN1C(=O)c1ccccc1
band B

Check CC(C)C[C@@H]1NC(=O)[C@@H]2C[C@H](C(=O)NCCCCCC[N+](C)(C)C)[C@H](c3ccc(O)cc3)N2C1=O too.
band C

// next record C[C@]1(C(=O)NCc2ccccc2)c2ccccc2C(=O)N(Cc2cc(F)cc(C(F)(F)F)c2)[C@H]1c1ccc(CO)cc1
band C

* * *

Tested on: Fibrinogen (Alexa647-labelled)
Experiment: fibrinogen binders on compound microarrays, profiling panel, artefact control for SMM control-protein annotation, biochemical, small-molecule microarray, 635/667 nm fluorescence (AID 1131);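 further: z-score merges 667 nm fluorescence with per-spot signal-to-noise over triplicate slides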
Conditions: fibrinogen-A647 binding fluorescence, higher = more signal
readout name: composite z-score
Lab note: write the figure by itself, no unit.

The examples below pair each entry with its known result.
molecule	test target	composite z-score
C=C(C(=O)CC[C@H](OC(C)=O)c1ccc(OCCO)cc1)C(C)C	Fibrinogen (Alexa647-labelled)	0.711
COCCCNC(=O)[C@@]1(c2ccc([N+](=O)[O-])cc2)CC(=O)N(CC23CC4CC(CC(C4)C2)C3)[C@@H]1c1ccc(CO)cc1	Fibrinogen (Alexa647-labelled)	0.799

Need composite z-score of C=CCNC(=O)[C@@H]1[C@H]2C(=O)O[C@H](c3ccccc3)[C@H](c3ccccc3)N2[C@H](c2ccc(O)cc2)[C@@]12C(=O)N(C(=O)OCCOC)c1ccccc12 , thanks.
0.945

Now give it for COCCOC(=O)N1C(=O)[C@@]2(c3cc(C#CC4(O)CCCCCC4)ccc31)[C@H](C(=O)N1CCCCCCC1)[C@H]1C(=O)O[C@H](c3ccccc3)[C@H](c3ccccc3)N1[C@@H]2c1ccccc1OCCO too.
0.832

How about this molecule: CCCN1C(=O)[C@]2(COC(c3ccc(OCCCO)cc3)=N2)Cc2ccccc21
0.551

Now consider C=CCOC(=O)[C@H]1[C@@H]2C(=O)O[C@@H](c3ccccc3)[C@@H](c3ccccc3)N2[C@@H](c2ccc(OCCOC(=O)[C@@H]3C[C@@H]4C(=O)N5CCC[C@H]5C(=O)N4[C@@H]3c3ccc(O)cc3)cc2)[C@]12C(=O)Nc1ccccc12 and answer again.
0.655

Another molecule to check: O=C1O[C@H](c2ccccc2)[C@H](c2ccccc2)N2[C@H]1[C@@H](C(=O)O)[C@]1(C(=O)Nc3ccc(C#CC4=CCCCC4)cc31)[C@H]2c1ccc(OCCO)cc1
0.98

Lookup CC(=O)Nc1cc(Br)ccc1C(=O)O
0.805

* * *

Assay: mitochondrial membrane potential change in A549 cells, profiling panel, cell-based, JC-1 fluorescence, basal, 24 h, 100 nL (AID 1138);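 further: A549 lung adenocarcinoma cells under basal conditions with no added stimulus; test concentration not given here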
Details: higher = more signal
readout name: z-score
When you answer, write just the number.

Example compounds with recorded z-score:
compound	z-score
CC(C)(C)OC(=O)CC[C@]1(C(=O)N2CCCCC2)N=C(c2ccc(OCCCO)cc2)O[C@H]1c1ccccc1N=[N+]=[N-]	2.83
Cc1ccc(S[C@]2(C(=O)NCCN3CCOCC3)CC(=O)N(Cc3cc(C(F)(F)F)cc(C(F)(F)F)c3)[C@@H]2c2ccc(CO)cc2I)cc1	0.164
COc1ccc(C(O)C2C=CC3C(=O)N(C)C(=O)C3N2Nc2ccccc2)cc1OCc1ccccc1 (configuration not stated)	-0.295
CN(C)C(=O)[C@]1(CCC(=O)OC(C)(C)C)N=C(c2ccc(OCCCO)cc2)O[C@@H]1c1ccccc1N=[N+]=[N-]	0.752

# query: z-score of entry COCCOC(=O)N1C(=O)[C@@]2(c3cc(C#CC4=CCCCC4)ccc31)[C@H](C(=O)N1CCc3cc(OC)c(OC)cc3C1)[C@H]1C(=O)O[C@H](c3ccccc3)[C@H](c3ccccc3)N1[C@@H]2c1ccccc1OCCO
-1.11

Then C=C(COC)/C(=C/C[C@H](OC(=O)c1ccncc1)c1cccc(OCCO)c1)c1cc(C(=O)OC)ccc1OC ?
1.48

# iterate: O=C1O[C@H](c2ccccc2)[C@H](c2ccccc2)N2[C@H]1[C@@H](C(=O)Nc1nc3ccccc3s1)[C@]1(C(=O)Nc3ccccc31)[C@H]2c1ccc(O)cc1
-2.12

* * *

Assay: binders of probe aFSTL3 on microarray, primary screen, stem cell growth factor project, biochemical, small-molecule microarray, fluorescence 635/667 (AID 1064);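 further: measures binding of the biotinylated anti-FSTL3 antibody to printed compounds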
Settings: higher = more signal
readout name: composite z-score
# print the numeric value only

compound	composite z-score
COCCOC(=O)N1C(=O)[C@@]2(c3cc(C#CCNC(N)=O)ccc31)[C@H](c1ccc(OCCO)cc1)N1[C@H](c3ccccc3)[C@H](c3ccccc3)OC(=O)[C@H]1[C@@H]2C(=O)N1CCc2cc(OC)c(OC)cc2C1	0.187
COc1ccc(C(=O)Nc2cccc(CN3C(=O)[C@]4(O[C@H](CC(=O)N5CCC[C@H]5CO)[C@@H]([Si](C)(C)c5ccc(OC)cc5)[C@@H]4C)c4ccccc43)c2)cc1	-0.0422
C=CCNC(=O)[C@@H]1[C@H]2C(=O)O[C@H](c3ccccc3)[C@H](c3ccccc3)N2[C@H](c2ccc(O)cc2)[C@@]12C(=O)N(C(=O)OCCOC)c1ccccc12	-0.0042
NCCCCCCNC(=O)[C@H]1C[C@H]2C(=O)NCC(=O)N2[C@H]1c1cccc(OCCO)c1	-0.196
CCOC(=O)C[C@H]1[C@H](OC(=O)c2ccc(-c3ccccc3)cc2)[C@@H](NC(=O)c2ccc3ccccc3c2)c2cc(OCCCO)ccc2N1C(=O)Cc1ccc(OC)cc1	-0.325
CC1CC/C=C\[C@H]2OC34C=CCN(Cc5ccccc5)C(=O)[C@H]3N(CCCCCO)C(=O)[C@@H]4C2C(=O)O1 (some centres undefined)	0.158
COCCCNC(=O)[C@@]1(c2ccc([N+](=O)[O-])cc2)CC(=O)N(CC23CC4CC(CC(C4)C2)C3)[C@@H]1c1ccc(CO)cc1	-0.46
CC(C)C[C@@H]1NC(=O)[C@H]2C[C@@H](C(=O)NCCCCCNC(=O)CS)[C@@H](c3cccc(OCCO)c3)N2C1=O	-0.197

Consider now this further compound.
Need composite z-score of O=C(O)[C@H]1C[C@H]2C(=O)NCC(=O)N2[C@H]1c1ccc(O)cc1 , thanks.
0.136

* * *

Test: P. aeruginosa biofilm formation inhibitors, primary screen, strain PAO1, LB-PBS medium, absorbance 600 nm (AID 1176); further: test concentration not given here
Conditions: P. aeruginosa PAO1 growth/biofilm, A600, 12 h; higher = more signal
Cut-off 0.5 on z-score, inclusive. At or above means MET; below means NOT MET.

Solved cases below.
molecule	class label
CCOC(=O)C1=CC[C@@H](c2ccccc2Cl)N(S(=O)(=O)c2ccc(C)cc2)C1	NOT MET
COCCOC(=O)N1C(=O)[C@@]2(c3ccccc31)[C@H](C(=O)NC[C@H](O)c1ccccc1)[C@H]1C(=O)O[C@H](c3ccccc3)[C@H](c3ccccc3)N1[C@@H]2c1ccc(OCCO)cc1	MET
C=CCC(OC(C)=O)[C@@H]1[C@@H](N(Cc2ccc(-c3cccc(C(F)(F)F)c3)o2)C(=O)c2ccc(C)cc2)c2cc(OCCCO)ccc2N1C(=O)c1ccc(-c2ccccc2)cc1 (stereo not given in full)	NOT MET
CC(C)NC(=O)[C@@H]1c2ccccc2C(=O)N(Cc2ccccc2Cl)[C@H]1c1ccc(CO)cc1	NOT MET

Determine whether this molecule has z-score no lower than 0.5: CS(=O)(=O)CCOC(=O)C1=CC(c2ccc(CO)cc2)=CC(C2CC2)N(Cc2cc3c(cc2Br)OCO3)C=C1C(=O)OCCS(C)(=O)=O (stereo not given)
MET

Then this molecule: O=C1OCCC=C[C@H]2OC34C=CCN(Cc5ccccc5)C(=O)[C@H]3N(CCCCCO)C(=O)[C@@H]4C12 (stereo not given in full)
NOT MET

Check O=C1C2C=CC(C(O)c3ccc(B(O)O)cc3)N(Nc3ccccc3)C2C(=O)N1c1ccccc1 (stereo not given) too.
MET

Moving on to the next molecule: COC(=O)[C@@]1(Cc2ccccc2)[C@H]2c3cc(C(=O)N4CCCC4)n(Cc4ccc(C)o4)c3C[C@H]2CN1C(=O)c1ccccc1
NOT MET
